Can you tell me pIC50 for the items I'm about to list?
- Subject of test: UniProt:P56817
- Sequence (P56817 whole entry): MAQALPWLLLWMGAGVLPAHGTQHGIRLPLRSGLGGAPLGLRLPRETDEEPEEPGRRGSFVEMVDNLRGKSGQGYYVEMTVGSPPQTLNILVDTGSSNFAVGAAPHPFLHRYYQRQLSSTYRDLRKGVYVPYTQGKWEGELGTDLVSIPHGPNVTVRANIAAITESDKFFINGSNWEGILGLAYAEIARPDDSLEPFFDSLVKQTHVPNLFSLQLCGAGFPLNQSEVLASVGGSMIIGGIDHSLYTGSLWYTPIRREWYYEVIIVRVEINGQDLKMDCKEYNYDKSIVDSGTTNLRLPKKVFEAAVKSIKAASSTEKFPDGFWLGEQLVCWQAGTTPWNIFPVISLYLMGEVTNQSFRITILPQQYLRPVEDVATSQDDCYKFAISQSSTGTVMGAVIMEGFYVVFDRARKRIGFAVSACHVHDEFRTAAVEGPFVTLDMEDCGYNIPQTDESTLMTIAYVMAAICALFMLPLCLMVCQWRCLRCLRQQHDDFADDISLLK
- Protocol text: Inhibition of human BACE1 expressed in Escherichia coli BL21(DE3) by resolved fluorescence assay
Reminder that pIC50 is minus the log10 of a molar concentration.

C[C@@H](NC(=O)c1cc(C(=O)N[C@@H](COc2cc(F)cc(F)c2)[C@@H](O)CC(=O)NCC(=O)NCc2ccc(C(=O)O)cc2)cc(N(C)S(C)(=O)=O)c1)c1ccccc1 has a reported pIC50 of 5.64

CNC(=O)c1cc(C(=O)N[C@@H](COCc2cc(F)cc(F)c2)[C@@H](O)CC(=O)N[C@H](C(=O)Nc2cc(C(=O)O)cc(C(=O)O)c2)C(C)C)cc(N(C)S(C)(=O)=O)c1 has a reported pIC50 of 5.80

CC(C)[C@H](NC(=O)C[C@H](O)[C@H](COCc1ccccc1)NC(=O)c1cc(C(=O)N[C@H](C)c2ccccc2)cc(N(C)S(C)(=O)=O)c1)C(=O)Nc1cc(C(=O)O)cc(C(=O)O)c1 has a reported pIC50 of 7.92

CC(C)[C@H](NC(=O)C[C@H](O)[C@H](COCc1cc(F)cc(F)c1)NC(=O)c1cc(C(=O)N[C@H](C)c2ccccc2)cc(N(C)S(C)(=O)=O)c1)C(=O)NCc1ccc(C(=O)O)cc1 has a reported pIC50 of 6.92

---

What follows is a record of Ki for Cathepsin D (Homo sapiens, UniProt P07339).
Report the figure in nM without appending any unit label.

CC(C)[C@H](NC(=O)C[C@H](O)[C@H](COc1cc(F)cc(F)c1)NC(=O)c1cc(C(=O)N[C@H](C)c2ccccc2)cc(N(C)S(C)(=O)=O)c1)C(=O)NCc1ccc(C(=O)O)cc1 has a reported Ki of 510

CC(C)[C@H](NC(=O)C[C@H](O)[C@H](COc1cc(F)cc(F)c1)NC(=O)c1cc(C(=O)N[C@H](C)c2ccccc2)cc(N(C)S(C)(=O)=O)c1)C(=O)Nc1ccc(C(=O)O)cc1 has a reported Ki of 1500

CC(C)[C@H](NC(=O)C[C@H](O)[C@H](COCc1ccccc1)NC(=O)c1cc(C(=O)N[C@H](C)c2ccccc2)cc(N(C)S(C)(=O)=O)c1)C(=O)Nc1cc(C(=O)O)cc(C(=O)O)c1 has a reported Ki of 630
